Test system: HepG2
assayExplanation: Cytotoxicity against Homo sapiens (human) HepG2 cells assessed as inhibition of cell survival after 96 hr
Type: functional, cell-based
testConditions: HepG2, 96 h
recordedEndpoint: log10 IC50 (log10 of the value in µM)

INSERT INTO measurements (compound, number) VALUES
  ('NC(=O)N/N=C1\CC2(CCCCCC2)Oc2ccc(O)cc21', 3.05),
  ('Oc1ccc2c(c1)-c1nn[se]c1C1(CCCC1)O2', 1.78),
  ('O=C1CC2(CCCC2)Oc2ccc(O)cc21', 2.66),
  ('CC1(C)Oc2ccc(O)cc2-c2nn[se]c21', 1.78),
  ('CC(=O)NC1=NN(C(C)=O)C2(CC(C)(C)Oc3ccc(OC(C)=O)cc32)S1 (stereo not drawn)', 1.48),
  ('CC(=O)NC1=NN(C(C)=O)C2(CC3(CCCCC3)Oc3ccc(OC(C)=O)cc32)S1 (stereo not drawn)', 1.85),
  ('CC1(C)CC(=O)c2cc(O)ccc2O1', 2.68),
  ('NC(=S)N/N=C1\CC2(CCCCC2)Oc2ccc(O)cc21', 2.91),
  ('CC(=O)NC1=NN(C(C)=O)C2(CC3(CCCC3)Oc3ccc(OC(C)=O)cc32)S1 (stereo not drawn)', 1.70),
  ('CC1(C)C/C(=N\NC(N)=O)c2cc(O)ccc2O1', 2.08),
  ('CCC1(C)C/C(=N\NC(N)=S)c2cc(O)ccc2O1 (stereo not drawn)', 1.78),
  ('NC(=O)N/N=C1\CC2(CCCC2)Oc2ccc(O)cc21', 2.00),
  ('CCC1(C)CC(=O)c2cc(O)ccc2O1 (stereo not drawn)', 2.18);

Reference for the values: ChEMBL document CHEMBL3045909
